Biological target: T1, human PD-L1-his taq protein (human, UniProt Q9NZQ7 19-239, limits assumed)
T1 construct: also called recombinant PD-L1 protein; recombinant human PD-L1; not shown: his tag
T1 sequence (Q9NZQ7 19-239 limits assumed): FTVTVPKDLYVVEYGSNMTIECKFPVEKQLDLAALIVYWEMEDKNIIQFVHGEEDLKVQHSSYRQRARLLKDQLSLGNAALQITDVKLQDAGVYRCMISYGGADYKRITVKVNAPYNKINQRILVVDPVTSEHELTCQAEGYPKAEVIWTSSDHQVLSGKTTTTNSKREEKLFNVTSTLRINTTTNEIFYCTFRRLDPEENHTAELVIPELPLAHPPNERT
Assay: SPR Biacore T200, antibody captured, PD-L1-his injected
pKd: −log10 of the molar value.

- binder: "Hu1210-41 (antibody, V domains shown, Hu1210 VH.4d x Vk.1; human gamma 1 / kappa constant domains; also called H12; Hu1210 VH.4d x Hu1210 Vk.1) VH: EVQLVESGGGLVQPGGSLRLSCAASGFTFSSYDMSWVRQAPGKSLEWVATISDAGGYIYYSDSVKGRFTISRDNAKNSLYLQMNSLRDEDTAVYICAREFGKRYALDYWGQGTTVTVSS VL: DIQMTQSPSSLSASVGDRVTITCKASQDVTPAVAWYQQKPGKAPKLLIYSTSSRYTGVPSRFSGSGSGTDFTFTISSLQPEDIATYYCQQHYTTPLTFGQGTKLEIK"
  pKd: 9.42
- binder: "H1210 chimera (antibody, V domains shown, also called chimeric antibody) VH: EVKLVESGGDLVKPGGSLKLSCAASGFTFSSYDMSWVRQTPEKSLEWVATISDGGGYIYYSDSVKGRFTISRDNAKNNLYLQMSSLRSEDTALYICAREFGKRYALDYWGQGTSVTVSS VL: DIVMTQSHKFMSTSVGDRVSISCKASQDVTPAVAWYQQKPGQSPKLLIYSTSSRYTGVPDRFTGSGSGTDFTFTISSVQAEDLAVYYCQQHYTTPLTFGAGTKLELK"
  pKd: 9.58

Recorded values, source patent US20220363763A1.
